Test system: MCF7
Assay name: Antiproliferative activity against MCF7 cells after 72 hrs
Format: functional, cell-based
Study conditions: Homo sapiens, MCF7, 72 h
Outcome measure: pIC50
Schema: pIC50 number; meaning minus log10 of the concentration expressed in molar units.

CCNC(=O)c1c(N)sc2c1CCCCC2; 4.03
Cc1ccc(Nc2cc(C)c(O)c(C)c2)cc1; 5.04

The compound listed as CCOc1ccc(Nc2nc(-c3sc(NC(C)=O)nc3C)cs2)cc1 has a reported pIC50 of 5.68

###

# IC50 listing for each entry below
Tested on: MCF7
Assay name: Antiproliferative activity against MCF7 cells after 72 hrs
Format: functional, cell-based
Study conditions: Homo sapiens, MCF7, 72 h

Please review the following examples before continuing.
Cc1nc(N)sc1-c1csc(Nc2ccccc2)n1; 44 µM
COc1ccc(C(=O)/C=C(\C)Nc2ccccc2O)cc1; > 100 µM

Observed IC50 on MCF7, entry Oc1ccc(O)c(SCCCCN2CCOCC2)c1 , equals 19 µM

Observed IC50 on MCF7, entry Cc1c(Cc2ccccc2)sc(NC(=O)c2ccc([N+](=O)[O-])cc2)c1C(N)=O , equals 41 µM

Observed IC50 on MCF7, entry C=CCOc1ccccc1/C=C1\C(=O)N(c2cccc(Cl)c2)N=C1C , equals 34 µM

Observed IC50 on MCF7, entry O=C(CSc1nnnn1-c1ccc(F)cc1F)Nc1ccc2c(c1)OCCO2 , equals > 100 µM

###

Assay name: Inhibition of Hsp90-dependent luciferase renaturation in rabbit reticulocyte after 30 mins by luciferase refolding assay
Parameters: species or system Oryctolagus cuniculus
# IC50 listing for each entry below
Supply the numeric figure in µM, leaving out any unit text.

Please review the following examples before continuing.
CCOC(=O)Oc1ccc2c(c1)C(C)=CC(C)(C)N2; 16
CSc1nnc2c(n1)OC=Nc1ccccc1-2; 15
Nc1ncc(-c2cccs2)s1; 55

The compound listed as CCc1ccc(O)c(/N=C/c2cccc(C)c2O)c1 has a reported IC50 of 7

The compound listed as CCNC(=O)c1c(N)sc2c1CCCCC2 has a reported IC50 of 23

The compound listed as CC1=NN(c2ccc(Cl)cc2)C(=O)C1 has a reported IC50 of 2.1

###

# IC50 listing for each entry below
System: MCF7
Assay name: Antiproliferative activity against MCF7 cells after 72 hrs
Assay type: functional, cell-based
Study conditions: Homo sapiens, MCF7, 72 h
Supply the numeric figure in µM, leaving out any unit text.

Please review the following examples before continuing.
CCOC(=O)Oc1ccc2c(c1)C(C)=CC(C)(C)N2; 3
CCc1ccc(O)c(/N=C/c2cccc(C)c2O)c1; 25

The compound listed as Oc1c(C(Nc2cccc(Cl)c2)c2ccncc2)ccc2cccnc12 (configuration not stated) has a reported IC50 of 4

###

# IC50 listing for each entry below
Assay name: Inhibition of Hsp90-dependent luciferase renaturation in rabbit reticulocyte after 30 mins by luciferase refolding assay
Set-up: species or system Oryctolagus cuniculus
Supply the numeric figure in µM, leaving out any unit text.

Please review the following examples before continuing.
Cc1cc2nn(-c3ccc(Cl)cc3)nc2cc1NC(=O)C(C)C; 0.12
CCOc1ccc(Nc2nc(-c3sc(NC(C)=O)nc3C)cs2)cc1; 1.9
COc1ccccc1CNC(=O)c1ccc(C)cc1; 22
N#CC1=C(N)N2C(=C(C#N)C1c1cccs1)Sc1ccccc12 (configuration not stated); 13
Oc1ccc(O)c(SCCCCN2CCOCC2)c1; 120

The compound listed as C=CCOc1ccccc1/C=C1\C(=O)N(c2cccc(Cl)c2)N=C1C has a reported IC50 of 4.5

The compound listed as Cc1ccc(Nc2cc(C)c(O)c(C)c2)cc1 has a reported IC50 of 6.7
